Test system: 8305C (Thyroid Gland Carcinoma);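 also: after 72 h of two-drug dosing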
assayName: Bliss excess, mean over the matrix (fraction); higher = more synergy
// Condition not met strictly below -0.02 in Bliss excess; Condition met otherwise

CN(CCO)CC[C@H](CSc1ccccc1)Nc1ccc(S(=O)(=O)NC(=O)c2ccc(N3CCC([C@@H](O)c4ccccc4-c4ccc(Cl)cc4)CC3)cc2)cc1S(=O)(=O)C(F)(F)F [AZD4320] + CCN(CCO)CCCOc1ccc2c(Nc3cc(CC(=O)Nc4cccc(F)c4)[nH]n3)ncnc2c1 [AZD2811] (first compound max 1 µM, 7x7, partner max 1 µM)
Condition met
Cc1nc(-c2cn3c(n2)-c2ccc(-c4cnn(C(C)(C)C(N)=O)c4)cc2OCC3)n(C(C)C)n1 [Taselisib] + O=C(Nc1ccc2[nH]nc(-c3ccncc3)c2c1)[C@@H]1CCN(CC(=O)N2CCN(c3ccc(-c4ncccn4)cc3)CC2)C1 [SCH772984] (first compound max 10 µM, 7x7, partner max 5 µM)
Condition met
Cc1cc2ncnn2cc1Nc1ncc2c(n1)n(C1CCOCC1)c(=O)n2C [AZD7648] + O=C(c1cc(Cc2n[nH]c(=O)c3ccccc23)ccc1F)N1CCN(C(=O)C2CC2)CC1 [Olaparib] (first compound max 10 µM, 7x7, partner max 10 µM)
Condition not met

Field: next compound
(Q) Does Cn1cnc2c(F)c(Nc3ccc(Br)cc3Cl)c(C(=O)NOCCO)cc21 [Selumetinib] + CCN(CCO)CCCOc1ccc2c(Nc3cc(CC(=O)Nc4cccc(F)c4)[nH]n3)ncnc2c1 [AZD2811] (first compound max 10 µM, 7x7, partner max 1 µM) have a reported Bliss excess of at least -0.02?
(A) Condition met
